Tested on: 743489-274-T-PDC complex spheroid growth;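 note: spheroids exposed to agents for 7 days before readout; 100% = DMSO vehicle control wells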
measurement_description: Anticancer human tumor 743489-274-T-PDC patient-derived renal cell carcinoma cell line growth inhibition [AhR]
experimental_setup: second compound 0.1 µM; first compound 1 µM; stronger effect = lower value
observation_type: viability, T/C

Query: Fill blank: measured viability, T/C of the compound CC(C)c1c(-c2ccccc2)nc2c(C#N)c[nH]n2c1=O + CC(CO)NC(=O)c1cc(-c2ccc(Cl)cc2)nn(-c2cnn(C)c2)c1=O is ____.
Reply: 111%

Query: Fill blank: measured viability, T/C of the compound Nc1ccn(C2OC(CO)C(O)C2(F)F)c(=O)n1 (stereo not drawn) + CC(CO)NC(=O)c1cc(-c2ccc(Cl)cc2)nn(-c2cnn(C)c2)c1=O is ____.
Reply: 62.2%

Query: Fill blank: measured viability, T/C of the compound Nc1ncn(C2CC(O)C(CO)O2)c(=O)n1 (stereo not drawn) + Cc1ccccc1N=Nc1ccc(NC(=O)c2ccnn2C)c(C)c1 is ____.
Reply: 87.1%

This collection of values is drawn from PubChem BioAssay AID1919002.
